Recorded values, source paper PMC9814790.

- Target: KDM5A PHD3 finger with 6-fluorotryptophan at Trp18 and Trp28 (Homo sapiens) (UniProt P29375)
- Procedure Summary: ITC; H3K4me3 peptide (380 uM) titrated to KDM5A PHD3 fingers (28 uM); for AUX WT-KDM5A 190 uM peptide and 21 uM protein; 20 mM TRIS-HCl pH 7.5, 50 mM NaCl, 1 mM DTT; 19 injections; one set of sites model; 7-9 repeats (AUX WT in replicate)
Where no end group is shown, it is not given here. Me3 = trimethyl (trimethylated lysine, Kme3)
Test Readout: Kd (nM)

binder="ARTK(Me3)QTARKS [H3K4me3 histone peptide (ARTKme3QTARKS)]" test_readout=Kd obs_value=57
